# Tested on: Escherichia coli TOP10
# assayComment: shrunken log2 fold change of peptide-encoding DNA abundance (4.5 h post-induction vs induction); higher = less antimicrobial activity (less host growth inhibition)
# conditionInfo: time post-induction: 4.5 h; library: site-saturation at positions 5, 18, 19, 20
Each entry belongs to exactly one class, chosen by where its shrunken log2 fold change falls: zone 1 = under -0.1, zone 2 = from -0.1 up to 0.09, zone 3 = 0.09 and over

sequenceString: RRIRCRPPRLPRPRPRPGPGPRP
targetSystem: Escherichia coli TOP10
class: zone 3
--
sequenceString: RRIRRRPPRLPRPRPRPSRTPRP
targetSystem: Escherichia coli TOP10
class: zone 3
--
sequenceString: RRIRMRPPRLPRPRPRPKLRPRP
targetSystem: Escherichia coli TOP10
class: zone 2
--
sequenceString: RRIRSRPPRLPRPRPRPQSEPRP
targetSystem: Escherichia coli TOP10
class: zone 2
--
sequenceString: RRIRLRPPRLPRPRPRPNKNPRP
targetSystem: Escherichia coli TOP10
class: zone 1
--
sequenceString: RRIRGRPPRLPRPRPRPYGAPRP
targetSystem: Escherichia coli TOP10
class: zone 2
--
sequenceString: RRIRGRPPRLPRPRPRPYNTPRP
targetSystem: Escherichia coli TOP10
class: zone 3
--
sequenceString: RRIRNRPPRLPRPRPRPHQKPRP
targetSystem: Escherichia coli TOP10
class: zone 2
--
sequenceString: RRIRARPPRLPRPRPRPYYAPRP
targetSystem: Escherichia coli TOP10
class: zone 1
--
sequenceString: RRIRPRPPRLPRPRPRPYFTPRP
targetSystem: Escherichia coli TOP10
class: zone 1
--
sequenceString: RRIRDRPPRLPRPRPRPCSKPRP
targetSystem: Escherichia coli TOP10
class: zone 2
--
sequenceString: RRIRSRPPRLPRPRPRPQMWPRP
targetSystem: Escherichia coli TOP10
class: zone 3
--
sequenceString: RRIRARPPRLPRPRPRPNTDPRP
targetSystem: Escherichia coli TOP10
class: zone 1
--
sequenceString: RRIRYRPPRLPRPRPRPISIPRP
targetSystem: Escherichia coli TOP10
class: zone 1

* * *

Here, each record is paired with measured shrunken log2 fold change data.
# Tested on: Escherichia coli TOP10
# assayComment: shrunken log2 fold change of peptide-encoding DNA abundance (4.5 h post-induction vs induction); higher = less antimicrobial activity (less host growth inhibition)
# conditionInfo: time post-induction: 4.5 h; library: site-saturation at positions 5, 18, 19, 20
valueKind: shrunken log2 fold change

sequenceString: RRIRMRPPRLPRPRPRPAEMPRP
targetSystem: Escherichia coli TOP10
valueKind: shrunken log2 fold change
recordedMeasurement: 0.0981
--
sequenceString: RRIRQRPPRLPRPRPRPPTNPRP
targetSystem: Escherichia coli TOP10
valueKind: shrunken log2 fold change
recordedMeasurement: 0.201
--
sequenceString: RRIRLRPPRLPRPRPRPMQQPRP
targetSystem: Escherichia coli TOP10
valueKind: shrunken log2 fold change
recordedMeasurement: 0.0192
--
sequenceString: RRIRRRPPRLPRPRPRPAWNPRP
targetSystem: Escherichia coli TOP10
valueKind: shrunken log2 fold change
recordedMeasurement: 0.141
--
sequenceString: RRIRFRPPRLPRPRPRPGNTPRP
targetSystem: Escherichia coli TOP10
valueKind: shrunken log2 fold change
recordedMeasurement: -0.12
--
sequenceString: RRIRWRPPRLPRPRPRPTQTPRP
targetSystem: Escherichia coli TOP10
valueKind: shrunken log2 fold change
recordedMeasurement: 0.551
--
sequenceString: RRIRTRPPRLPRPRPRPCPAPRP
targetSystem: Escherichia coli TOP10
valueKind: shrunken log2 fold change
recordedMeasurement: 0.115
--
sequenceString: RRIRFRPPRLPRPRPRPHEKPRP
targetSystem: Escherichia coli TOP10
valueKind: shrunken log2 fold change
recordedMeasurement: -0.0136

* * *

# System: Escherichia coli TOP10
# assayComment: shrunken log2 fold change of peptide-encoding DNA abundance (4.5 h post-induction vs induction); higher = less antimicrobial activity (less host growth inhibition)
# conditionInfo: time post-induction: 4.5 h; library: site-saturation at positions 5, 18, 19, 20
Property: shrunken log2 fold change; scope: individual sequences

sequenceString: RRIRVRPPRLPRPRPRPFTMPRP
shrunken log2 fold change: -0.368
//
sequenceString: RRIRCRPPRLPRPRPRPTQVPRP
shrunken log2 fold change: 0.0177
//
sequenceString: RRIRLRPPRLPRPRPRPEEMPRP
shrunken log2 fold change: 0.034
//
sequenceString: RRIRYRPPRLPRPRPRPNDEPRP
shrunken log2 fold change: -0.034
//
sequenceString: RRIRMRPPRLPRPRPRPAQEPRP
shrunken log2 fold change: 0.0616
//
sequenceString: RRIRCRPPRLPRPRPRPVELPRP
shrunken log2 fold change: 0.103
//
sequenceString: RRIRGRPPRLPRPRPRPPGDPRP
shrunken log2 fold change: 1.18
//
sequenceString: RRIRNRPPRLPRPRPRPFNAPRP
shrunken log2 fold change: -0.257
//
sequenceString: RRIRRRPPRLPRPRPRPECKPRP
shrunken log2 fold change: -0.0282
//
sequenceString: RRIRLRPPRLPRPRPRPQRWPRP
shrunken log2 fold change: 0.236
//
sequenceString: RRIRWRPPRLPRPRPRPKNLPRP
shrunken log2 fold change: 0.0793
//
sequenceString: RRIRTRPPRLPRPRPRPQHQPRP
shrunken log2 fold change: -0.132
//
sequenceString: RRIRKRPPRLPRPRPRPFFTPRP
shrunken log2 fold change: 0.19
//
sequenceString: RRIRMRPPRLPRPRPRPSWEPRP
shrunken log2 fold change: 0.302
//
sequenceString: RRIRPRPPRLPRPRPRPPEMPRP
shrunken log2 fold change: 0.426
//
sequenceString: RRIRVRPPRLPRPRPRPCHIPRP
shrunken log2 fold change: -0.312
//
sequenceString: RRIRGRPPRLPRPRPRPQSNPRP
shrunken log2 fold change: 0.518
//
sequenceString: RRIRIRPPRLPRPRPRPSMKPRP
shrunken log2 fold change: -0.56
//
sequenceString: RRIRKRPPRLPRPRPRPNLQPRP
shrunken log2 fold change: 0.279
//
sequenceString: RRIRARPPRLPRPRPRPEKAPRP
shrunken log2 fold change: 0.046
//
sequenceString: RRIRARPPRLPRPRPRPYFHPRP
shrunken log2 fold change: -0.444
//
sequenceString: RRIRARPPRLPRPRPRPLNDPRP
shrunken log2 fold change: 0.0895
//
sequenceString: RRIRKRPPRLPRPRPRPATEPRP
shrunken log2 fold change: 0.486
//
sequenceString: RRIRERPPRLPRPRPRPFCNPRP
shrunken log2 fold change: -0.366
//
sequenceString: RRIRQRPPRLPRPRPRPTPFPRP
shrunken log2 fold change: 0.296
//
sequenceString: RRIRIRPPRLPRPRPRPHNYPRP
shrunken log2 fold change: -0.376
//
sequenceString: RRIRLRPPRLPRPRPRPQMVPRP
shrunken log2 fold change: -0.108
//
sequenceString: RRIRCRPPRLPRPRPRPCIFPRP
shrunken log2 fold change: -0.396
//
sequenceString: RRIRCRPPRLPRPRPRPTRRPRP
shrunken log2 fold change: 0.391
//
sequenceString: RRIRVRPPRLPRPRPRPTHRPRP
shrunken log2 fold change: 0.662
//
sequenceString: RRIRERPPRLPRPRPRPYLIPRP
shrunken log2 fold change: -0.626
//
sequenceString: RRIRDRPPRLPRPRPRPGKSPRP
shrunken log2 fold change: 0.0637

* * *

# Tested on: Escherichia coli TOP10;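 further: peptides expressed intracellularly from a pBAD plasmid library in pooled LB shake-flask culture, induced with 0.3% L-arabinose, DNA abundance read by NGS, three biological replicates, DESeq2 with apeglm shrinkage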
# assayComment: shrunken log2 fold change of peptide-encoding DNA abundance (4.5 h post-induction vs induction); higher = less antimicrobial activity (less host growth inhibition)
# conditionInfo: time post-induction: 4.5 h; library: site-saturation at positions 5, 18, 19, 20

sequenceString: RRIRFRPPRLPRPRPRPSPAPRP
shrunken log2 fold change: 0.176
--
sequenceString: RRIRLRPPRLPRPRPRPTPTPRP
shrunken log2 fold change: 0.786
--
sequenceString: RRIRKRPPRLPRPRPRPSSKPRP
shrunken log2 fold change: -0.181
--
sequenceString: RRIRNRPPRLPRPRPRPFAVPRP
shrunken log2 fold change: -0.398
--
sequenceString: RRIRQRPPRLPRPRPRPSYVPRP
shrunken log2 fold change: -1.04
--
sequenceString: RRIRARPPRLPRPRPRPEMEPRP
shrunken log2 fold change: 1.3
--
sequenceString: RRIRDRPPRLPRPRPRPNLYPRP
shrunken log2 fold change: -0.0872
--
sequenceString: RRIRLRPPRLPRPRPRPPIKPRP
shrunken log2 fold change: -0.179
--
sequenceString: RRIRERPPRLPRPRPRPIMVPRP
shrunken log2 fold change: -0.023
--
sequenceString: RRIRDRPPRLPRPRPRPWPKPRP
shrunken log2 fold change: -0.149
--
sequenceString: RRIRYRPPRLPRPRPRPHCPPRP
shrunken log2 fold change: -0.0417
--
sequenceString: RRIRRRPPRLPRPRPRPICRPRP
shrunken log2 fold change: 0.378
--
sequenceString: RRIRWRPPRLPRPRPRPQCTPRP
shrunken log2 fold change: 0.11
--
sequenceString: RRIRSRPPRLPRPRPRPFEKPRP
shrunken log2 fold change: 0.00827
--
sequenceString: RRIRWRPPRLPRPRPRPTVGPRP
shrunken log2 fold change: 0.468
